system: SARS-CoV; assay: Inhibition of SARS coronavirus-induced cytopathogenicity in Vero E6 cells at 20 uM; type: functional; conditions: Severe acute respiratory syndrome-related coronavirus
A collection of molecules and their measured inhibition at 20 µM

[
  {
    "molecule": "COc1cc(/C=C/C(=O)CC(=O)/C=C/c2ccc(O)c(OC)c2)ccc1O",
    "inhibition at 20 µM": "25%"
  },
  {
    "molecule": "C[C@@H]1CC[C@H]2[C@@](C)(CO)[C@H]3C[C@@]12CC[C@@]3(C)O",
    "inhibition at 20 µM": "< 25%"
  },
  {
    "molecule": "C=CCc1ccc(O)c(-c2ccc(O)c(CC=C)c2)c1",
    "inhibition at 20 µM": "< 25%"
  },
  {
    "molecule": "O=C(Nc1ccc([N+](=O)[O-])cc1Cl)c1cc(Cl)ccc1O [NICLOSAMIDE]",
    "inhibition at 20 µM": "< 25%"
  },
  {
    "molecule": "C=C[C@@]1(C)CC(=O)[C@]2(O)[C@@]3(C)[C@@H](O)CCC(C)(C)[C@@H]3[C@H](O)[C@H](OC(C)=O)[C@@]2(C)O1",
    "inhibition at 20 µM": "< 25%"
  },
  {
    "molecule": "CC(C)[C@@H]1NC(=O)[C@H](C)OC(=O)[C@@H](C(C)C)NC(=O)[C@@H](C(C)C)OC(=O)[C@H](C(C)C)NC(=O)[C@H](C)OC(=O)[C@@H](C(C)C)NC(=O)[C@@H](C(C)C)OC(=O)[C@H](C(C)C)NC(=O)[C@H](C)OC(=O)[C@@H](C(C)C)NC(=O)[C@@H](C(C)C)OC1=O",
    "inhibition at 20 µM": "< 25%"
  }
]

* * *

tested on: SARS-CoV; test: Inhibition of SARS coronavirus-induced cytopathogenicity in Vero E6 cells at 10 uM; type: functional; details: Severe acute respiratory syndrome-related coronavirus
Listed here: items and their measured inhibition at 10 µM.
test-readout: inhibition at 10 µM

[
  {
    "molecule": "CC(C)C1=C[C@]2(O)CC[C@H]3C(C)(C)CCC[C@]3(C)C2=CC1=O",
    "measured-on": "SARS-CoV",
    "value": "< 25%"
  },
  {
    "molecule": "COc1cc(/C=C/C(=O)CC(=O)/C=C/c2ccc(O)c(OC)c2)ccc1O [CURCUMIN]",
    "measured-on": "SARS-CoV",
    "value": "50%"
  },
  {
    "molecule": "CC(=O)Oc1cc2c(cc1C(C)C)C=C[C@H]1C(C)(C)[C@@H](OC(C)=O)CC[C@]21C",
    "measured-on": "SARS-CoV",
    "value": "25%"
  },
  {
    "molecule": "O=C1OC[C@H](Cc2ccc3c(c2)OCO3)[C@H]1Cc1ccc2c(c1)OCO2 [HINOKININ]",
    "measured-on": "SARS-CoV",
    "value": "25%"
  },
  {
    "molecule": "C=C(C)[C@@H]1CC[C@]2(C(=O)O)CC[C@]3(C)[C@H](CC[C@@H]4[C@@]5(C)CC[C@H](O)C(C)(C)[C@@H]5CC[C@]43C)[C@@H]12 [BETULINIC ACID]",
    "measured-on": "SARS-CoV",
    "value": "25%"
  },
  {
    "molecule": "CC(C)C1=C(O)C(=O)C2=C(C=C[C@H]3C(C)(C)CCC[C@]23C)C1=O",
    "measured-on": "SARS-CoV",
    "value": "25%"
  },
  {
    "molecule": "CC(C)c1cc2c(cc1O)[C@@]1(C)CCCC(C)(C)[C@@H]1CC2=O [SUGIOL]",
    "measured-on": "SARS-CoV",
    "value": "< 25%"
  },
  {
    "molecule": "C=CCc1ccc(O)c(-c2ccc(O)c(CC=C)c2)c1 [HONOKIOL]",
    "measured-on": "SARS-CoV",
    "value": "< 25%"
  }
]

* * *

test: Cytotoxicity against Vero E6 cells by MTT assay; format: cell-based; details: chlorocebus sabaeus
# key: entry, value: CC50

[
  {
    "molecule": "C[C@@H]1CC[C@H]2[C@@](C)(CO)[C@H]3C[C@@]12CC[C@@]3(C)O",
    "unit": "µM",
    "readout-qualifier": ">",
    "CC50": 750
  },
  {
    "molecule": "O=C1OC[C@H](Cc2ccc3c(c2)OCO3)[C@H]1Cc1ccc2c(c1)OCO2 [HINOKININ]",
    "unit": "µM",
    "readout-qualifier": ">",
    "CC50": 750
  },
  {
    "molecule": "C=C(C)[C@@H]1CC[C@]2(C(=O)O)CC[C@]3(C)[C@H](CC[C@@H]4[C@@]5(C)CCC(=O)C(C)(C)[C@@H]5CC[C@]43C)[C@@H]12 [BETUNOLIC ACID]",
    "unit": "µM",
    "readout-qualifier": "=",
    "CC50": 112
  },
  {
    "molecule": "C=C[C@@]1(C)CC(=O)[C@]2(O)[C@@]3(C)[C@@H](O)CCC(C)(C)[C@@H]3[C@H](O)[C@H](OC(C)=O)[C@@]2(C)O1 [COLFORSIN]",
    "unit": "µM",
    "readout-qualifier": "=",
    "CC50": 674
  },
  {
    "molecule": "C=C(C)[C@@H]1CC[C@]2(C(=O)O)CC[C@]3(C)[C@H](CC[C@@H]4[C@@]5(C)CC[C@H](O)C(C)(C)[C@@H]5CC[C@]43C)[C@@H]12 [BETULINIC ACID]",
    "unit": "µM",
    "readout-qualifier": "=",
    "CC50": 150
  },
  {
    "molecule": "COc1c(C(C)C)cc2c(c1O)[C@@]1(C)CCCC(C)(C)[C@@H]1C[C@@H]2O",
    "unit": "µM",
    "readout-qualifier": "=",
    "CC50": 127
  },
  {
    "molecule": "COc1cc(/C=C/C(=O)CC(=O)/C=C/c2ccc(O)c(OC)c2)ccc1O [CURCUMIN]",
    "unit": "µM",
    "readout-qualifier": ">",
    "CC50": 250
  },
  {
    "molecule": "C=C1CC[C@@H]2[C@](C)(CCC[C@]2(C)C(=O)O)[C@H]1CCC1=CCOC1=O [PINUSOLIDIC ACID]",
    "unit": "µM",
    "readout-qualifier": ">",
    "CC50": 750
  },
  {
    "molecule": "CC(C)C1=C[C@]2(O)CC[C@H]3C(C)(C)CCC[C@]3(C)C2=CC1=O",
    "unit": "µM",
    "readout-qualifier": ">",
    "CC50": 750
  }
]
